Measured pKi by item
TARGET_OR_SYSTEM: CDK9/cyclin T1 (Homo sapiens)
Sequence (O60563 whole entry): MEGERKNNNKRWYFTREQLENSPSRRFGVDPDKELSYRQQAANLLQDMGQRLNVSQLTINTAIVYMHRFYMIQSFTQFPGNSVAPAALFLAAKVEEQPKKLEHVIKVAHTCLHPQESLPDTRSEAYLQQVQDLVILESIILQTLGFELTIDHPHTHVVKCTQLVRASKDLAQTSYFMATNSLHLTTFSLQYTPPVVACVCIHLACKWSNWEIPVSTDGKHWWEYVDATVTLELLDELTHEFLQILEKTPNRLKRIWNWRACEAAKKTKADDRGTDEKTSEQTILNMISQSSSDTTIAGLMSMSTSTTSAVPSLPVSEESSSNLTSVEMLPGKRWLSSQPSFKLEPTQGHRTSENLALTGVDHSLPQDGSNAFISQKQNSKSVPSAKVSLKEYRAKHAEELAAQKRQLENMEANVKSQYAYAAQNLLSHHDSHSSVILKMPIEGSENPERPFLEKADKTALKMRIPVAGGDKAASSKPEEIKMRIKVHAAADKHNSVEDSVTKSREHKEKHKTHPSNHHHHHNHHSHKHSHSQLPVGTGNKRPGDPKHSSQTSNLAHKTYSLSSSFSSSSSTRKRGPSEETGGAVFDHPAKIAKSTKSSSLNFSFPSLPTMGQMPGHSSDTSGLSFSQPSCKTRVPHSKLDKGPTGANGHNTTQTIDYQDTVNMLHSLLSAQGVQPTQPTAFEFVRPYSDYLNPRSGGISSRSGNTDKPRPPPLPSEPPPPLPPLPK
Sequence (P50750 whole entry): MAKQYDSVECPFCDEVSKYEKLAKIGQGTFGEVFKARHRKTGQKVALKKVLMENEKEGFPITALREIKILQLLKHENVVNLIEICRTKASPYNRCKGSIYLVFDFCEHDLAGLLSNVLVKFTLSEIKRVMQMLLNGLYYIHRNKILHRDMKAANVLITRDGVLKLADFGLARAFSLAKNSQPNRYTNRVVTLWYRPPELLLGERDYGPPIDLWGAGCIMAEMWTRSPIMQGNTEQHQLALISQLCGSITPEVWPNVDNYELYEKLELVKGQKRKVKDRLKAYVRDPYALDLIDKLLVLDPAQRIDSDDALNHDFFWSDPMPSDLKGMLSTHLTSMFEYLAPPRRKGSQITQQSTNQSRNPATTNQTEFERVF
METHOD_DESCRIPTION: Inhibition of recombinant human full length CDK9/Cyclin T1 using KTFCGTPEYLAPEVRREPRILSEEEQEMFRDFDYIADWC as substrate incubated for 40 mins in presence of [gamma-33P]-ATP by scintillation counting method
Here pKi is given on a logarithmic scale as minus log10 of the concentration in mol/L.

Check out these entries, answers already filled in.
CNc1nc(C)c(-c2nc(Nc3cccc(N4CCCCCC4)c3)ncc2C#N)s1 : 8.22
CNc1nc(C)c(-c2nc(Nc3cccc(N4CCN(C(C)=O)CC4)c3)ncc2C)s1 : 7.92
C=Cc1cnc(Nc2cccc(N3CCOCC3)c2)nc1-c1sc(NC)nc1C : 7.21
CNc1nc(C)c(-c2ccnc(Nc3cccc(N4CCN(C(C)=O)CC4)c3)n2)s1 : 7.49
CNc1nc(C(F)(F)F)c(-c2ccnc(Nc3cccc(N4CCCNCC4)c3)n2)s1 : 8.10

# input Quick check: pKi of CNc1nc(C)c(-c2nc(Nc3cc(N4CCN(C(C)=O)CC4)cc(N4CCN(C(C)=O)CC4)c3)ncc2C#N)s1 ?
# output 7.68

# input Field entry: CNc1nc(C)c(-c2ccnc(Nc3cc(N4CCN(C(C)=O)CC4)cc(N4CCN(C(C)=O)CC4)c3)n2)s1
# output 6.73

# input Try this compound next: CNc1nc(C)c(-c2nc(Nc3cccc(N4CCNCC4)c3)ncc2C)s1
# output 8.10

# input Moving on to CNc1nc(C2CC2)c(-c2ccnc(Nc3cccc(C(=O)NC4CCN(C)CC4)c3)n2)s1
# output 7.40
